# assay.system: T1, SNAP25 Peptide 3 (PEP3; only a fragment of it is a SNAP25 subsequence) (Homo sapiens, UniProt P60880 SEQ:1-33)
# T1 chain: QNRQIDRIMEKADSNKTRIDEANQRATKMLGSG
# assay.overview: ELONA
reported.property: binding signal
Form entry: enter the amount, then its unit.

Use the examples below as a reference point.
binder	binding signal
PEP 3.17 (ssDNA, W indole, X amine, Y phenol modified dU [14, 27 (amine dU), 19 (indole dU), 20 (phenol dU)]) DNA: TTTTTAAGCCCACTAGAGTTCGGCCATCACAGTCCAACACTGTGGGCCCATG	110 ELISA signal
PEP 3.12 (ssDNA, W indole, X amine, Y phenol modified dU [14 (amine dU), 16 (indole dU), 19 (phenol dU)]) DNA: TTTTTAACACGACTATCCTGTGAGCAACACAGGGCGGCACTGTGGGCCCATG	118 ELISA signal

API: the following record is the query input.
# input Item under review: PEP 3.04 (ssDNA, W indole, X amine, Y phenol modified dU [19Y,24W,34Y,40W]) DNA: TTTTTAAGCCCACGGCACTGTGCTCAGCACAGCTCGGGGTGGTGGGCCCATG . Reported binding signal?
# output 276 ELISA signal
